The origin of these recorded values is patent US20230096766A1.

# TEST: in vitro
# SETUP CONDITIONS: human, Caco-2, Caco-2 (cm/sec)
*1 amine or outer side, *2 acyl side, *3 side chain or, on linkers, in order; H or OH if unused. Where a SMILES comes first, the peptide text is derived from it. Bridges are numbered along the chain shown (N, C = ends). [ ]: non-standard residue; d: D form. The star is where a group is joined. hPhe(3-OMe,4-CONHMe) = CNC(=O)c1ccc(CC[C@H](N)C(=O)O)cc1OC; Tyr(3-OMe) = COc1cc(C[C@H](N)C(=O)O)ccc1O; NMeF = CN[C@@H](Cc1ccccc1)C(=O)O; NMeGABA = CN(CCCC(=O)[*:2])[*:1]; NMeD = CN[C@@H](CC(=O)O)C(=O)O; NMeL = CN[C@@H](CC(C)C)C(=O)O; NMeV = CN[C@H](C(=O)O)C(C)C; NMeAbu = CC[C@H](NC)C(=O)O; NMeA = CN[C@@H](C)C(=O)O; Piperidide = C1CCN(*)CC1; Sar = CNCC(=O)O; tBu = CC(C)(C)*
Papp for assorted compounds

COMPOUND	Papp
CC[C@H](C)[C@@H]1NC(=O)[C@H](CC(C)C)N(C)C(=O)CCCN(C)C(=O)C[C@@H](C(=O)N2CCCCC2)NC(=O)[C@H](CC(C)C)N(C)C(=O)[C@H](CC(C)C)N(C)C(=O)[C@H]([C@@H](C)O)NC(=O)[C@H](CC(C)C)N(C)C(=O)[C@H](Cc2ccc(O)c(OC)c2)NC(=O)[C@H](CC(C)C)N(C)C(=O)[C@H](Cc2ccccc2)N(C)C1=O [Compound E03] ([NMeGABA][NMeL]I[NMeF][NMeL][Tyr(3-OMe)][NMeL]T[NMeL][NMeL]D-Piperidide; lactam N-11)	0.18 ×10⁻⁶ cm/s
CC[C@H](C)[C@@H]1NC(=O)[C@H](Cc2ccccc2)N(C)C(=O)[C@H](CCc2ccc(C(=O)NC)c(OC)c2)NC(=O)[C@H](CC(C)C)N(C)C(=O)[C@H](C(C)C)NC(=O)[C@H](CC(C)C)N(C)C(=O)[C@H](CC(C)C)N(C)C(=O)CNC(=O)[C@H](CC)N(C)C(=O)C[C@@H](C(=O)N2CCCCC2)NC(=O)[C@H]([C@@H](C)O)NC(=O)[C@H](CC(C)C)N(C)C(=O)[C@H](CC(C)C)N(C)C1=O [AP266] ([NMeAbu]G[NMeL][NMeL]V[NMeL][hPhe(3-OMe,4-CONHMe)][NMeF]I[NMeL][NMeL]TD-Piperidide; lactam N-13)	< 0.0895 ×10⁻⁶ cm/s

Q) What Papp value was documented for this compound, CC(C)C[C@@H]1NC(=O)[C@H](Cc2ccccc2)N(C)C(=O)[C@H](C)N(C)C(=O)C[C@@H](C(=O)N2CCCCC2)N(C)C(=O)[C@H](Cc2ccccc2)N(C)C(=O)[C@H](Cc2ccccc2)N(C)C(=O)[C@H](COC(C)(C)C)NC(=O)[C@H](C(C)C)N(C)C(=O)CN(C)C(=O)[C@H]([C@@H](C)O)NC(=O)[C@H](CC(C)C)N(C)C1=O [pd202] ([NMeA][NMeF]L[NMeL]T[Sar][NMeV]S(tBu)[NMeF][NMeF][NMeD]-Piperidide; lactam N-11) ?
A) 2.1 ×10⁻⁶ cm/s

----------
# TEST: in vitro
# SETUP CONDITIONS: human, Caco-2, Caco-2 (cm/sec) Papp
Where a SMILES comes first, the peptide text is derived from it. Bridges are numbered along the chain shown (N, C = ends). [ ]: non-standard residue; d: D form. The star is where a group is joined. NMeF = CN[C@@H](Cc1ccccc1)C(=O)O; NMeL = CN[C@@H](CC(C)C)C(=O)O; NMeV = CN[C@H](C(=O)O)C(C)C; NMeA = CN[C@@H](C)C(=O)O; Piperidide = C1CCN(*)CC1; Sar = CNCC(=O)O
Papp for assorted molecules
Please format your answer as a value with the unit trailing.

Example molecules with recorded Papp:
MOLECULE	MEASUREMENT KIND	RESULT
CC(C)C[C@@H]1NC(=O)[C@H](Cc2ccccc2)N(C)C(=O)[C@H](C(C)C)N(C)C(=O)C[C@@H](C(=O)N2CCCCC2)NC(=O)[C@H]([C@@H](C)O)NC(=O)[C@H](Cc2ccccc2)N(C)C(=O)[C@H](Cc2ccccc2)NC(=O)[C@H](Cc2ccccc2)N(C)C(=O)CN(C)C(=O)[C@H](C)N(C)C(=O)[C@H](CC(C)C)N(C)C1=O [pd229] ([NMeV][NMeF]L[NMeL][NMeA][Sar][NMeF]F[NMeF]TD-Piperidide; lactam N-11)	Papp	4.1 nm/s
CC(C)C[C@H]1C(=O)N(C)[C@@H](Cc2ccccc2)C(=O)N(C)[C@@H](CC(C)C)C(=O)N[C@H](C(=O)N(C)[C@@H](Cc2ccccc2)C(=O)N[C@@H](Cc2ccccc2)C(=O)N2CCCCC2)CC(=O)N[C@H](C(C)C)C(=O)N[C@@H](C)C(=O)N[C@@H]([C@@H](C)O)C(=O)N(C)[C@@H](C)C(=O)N[C@@H](Cc2ccccc2)C(=O)N1C [pd241] ([dV]AT[NMeA]F[NMeL][NMeF][NMeL]D[NMeF]F-Piperidide; lactam N-9)	Papp	0.58 nm/s

Now consider a different molecule.
Q) What Papp value was documented for this molecule, CC(C)C[C@@H]1NC(=O)[C@H](Cc2ccccc2)N(C)C(=O)[C@H](CC(C)C)N(C)C(=O)[C@H](Cc2ccccc2)NC(=O)[C@H](C)NC(=O)C[C@@H](C(=O)N2CCCCC2)NC(=O)[C@H](Cc2ccccc2)N(C)C(=O)CN(C)C(=O)[C@H](Cc2ccccc2)NC(=O)[C@H](CC(C)C)N(C)C(=O)[C@H]([C@@H](C)O)NC1=O [pd244] (AF[NMeL][NMeF]LT[NMeL]F[Sar][NMeF]D-Piperidide; lactam N-11) ?
A) 0.45 nm/s

----------
# TEST: in vitro
# SETUP CONDITIONS: human, Caco-2, Caco-2
*1 amine or outer side, *2 acyl side, *3 side chain or, on linkers, in order; H or OH if unused. Where a SMILES comes first, the peptide text is derived from it. Bridges are numbered along the chain shown (N, C = ends). [ ]: non-standard residue; d: D form. The star is where a group is joined. NMeAbu(3,3-F2-piperidino) = CN[C@@H](CCN1CCCC(F)(F)C1)C(=O)O; NMeAbu(4-morpholino) = CN[C@@H](CCN1CCOCC1)C(=O)O; X10 = CN([C@@H](CCN1CCC(F)(F)CC1)C(=O)[*:2])[*:1]; NMeF = CN[C@@H](Cc1ccccc1)C(=O)O; NMeL = CN[C@@H](CC(C)C)C(=O)O; NMeV = CN[C@H](C(=O)O)C(C)C; NMeA = CN[C@@H](C)C(=O)O; Piperidide = C1CCN(*)CC1; Me2NCH2CH2 = CN(C)CC*; NBuGly = CCCCNCC(=O)O; Isopentyl = CC(C)CC*; NPrGly = CCCNCC(=O)O; Sar = CNCC(=O)O; tBu = CC(C)(C)*
MEASUREMENT KIND: Papp (×10⁻⁶ cm/s)
The figure you give is taken to be in ×10⁻⁶ cm/s; do not add the unit.

COMPOUND	MEASUREMENT KIND	NUMERIC READOUT
CC(C)CCOC[C@@H]1NC(=O)[C@H](CCN2CCCC(F)(F)C2)N(C)C(=O)[C@H](Cc2ccccc2)N(C)C(=O)CN(C)C(=O)[C@H]([C@@H](C)O)NC(=O)[C@H](CC(C)C)N(C)C(=O)[C@H](CC(C)C)NC(=O)[C@H](Cc2ccccc2)N(C)C(=O)CN(C)C(=O)C[C@@H](C(=O)N2CCCCC2)NC(=O)[C@H](CC(C)C)N(C)C1=O [pd393] ([Sar][NMeF]L[NMeL]T[Sar][NMeF][NMeAbu(3,3-F2-piperidino)]S(Isopentyl)[NMeL]D-Piperidide; lactam N-11)	Papp	2.8
CCCCN1CC(=O)N(C)[C@@H](CC(C)C)C(=O)N[C@@H](COC(C)(C)C)C(=O)N(C)[C@@H](Cc2ccccc2)C(=O)N(C)[C@@H](C(C)C)C(=O)N[C@H](C(=O)N2CCCCC2)CC(=O)N[C@H](C(C)C)C(=O)N(C)[C@@H](Cc2ccccc2)C(=O)N[C@@H](COCCN(C)C)C(=O)N(C)[C@@H](CC(C)C)C(=O)N[C@@H]([C@@H](C)O)C1=O [pd53] ([dV][NMeF]S(Me2NCH2CH2)[NMeL]T[NBuGly][NMeL]S(tBu)[NMeF][NMeV]D-Piperidide; lactam N-11)	Papp	0.14
CCCCN1CC(=O)N(C)[C@@H](Cc2ccccc2)C(=O)N[C@@H](CC(C)C)C(=O)N(C)[C@@H](CC(C)C)C(=O)N[C@@H]([C@@H](C)O)C(=O)N(C)CC(=O)N(C)[C@@H](Cc2ccccc2)C(=O)N(C)[C@@H](CCN2CCC(F)(F)CC2)C(=O)N[C@@H](CC(C)C)C(=O)N(C)[C@@H](C(C)C)C(=O)N[C@H](C(=O)N2CCCCC2)CC1=O [pd395] ([NBuGly][NMeF]L[NMeL]T[Sar][NMeF][X10]L[NMeV]D-Piperidide; lactam N-11)	Papp	1.7
CCCCN1CC(=O)N(C)[C@@H](C(C)C)C(=O)N[C@H](C(=O)N2CCCCC2)CC(=O)N(C)[C@@H](C)C(=O)N[C@@H](CC(C)C)C(=O)N(C)[C@@H](CC(C)C)C(=O)N(C)[C@@H](Cc2ccccc2)C(=O)N[C@@H](CC(C)C)C(=O)N(C)[C@@H](Cc2ccccc2)C(=O)N(C)[C@@H](CCN2CCOCC2)C(=O)N[C@@H]([C@@H](C)O)C1=O [pd453] ([NMeA]L[NMeL][NMeF]L[NMeF][NMeAbu(4-morpholino)]T[NBuGly][NMeV]D-Piperidide; lactam N-11)	Papp	2.3

Q) What Papp value was documented for this compound, CCCN1CC(=O)N(C)[C@@H](CC(C)C)C(=O)N[C@@H](COCCN(C)C)C(=O)N(C)[C@@H](Cc2ccccc2)C(=O)N(C)[C@@H](C(C)C)C(=O)N[C@H](C(=O)N2CCCCC2)CC(=O)N[C@H](C(C)C)C(=O)N(C)[C@@H](Cc2ccccc2)C(=O)N[C@@H](CC(C)C)C(=O)N(C)[C@@H](CC(C)C)C(=O)N[C@@H]([C@@H](C)O)C1=O [pd52] ([dV][NMeF]L[NMeL]T[NPrGly][NMeL]S(Me2NCH2CH2)[NMeF][NMeV]D-Piperidide; lactam N-11) ?
A) 0.12
